Cited source for all entries: patent US8404720B2

target: Human 5-HT6 Receptor (Homo sapiens); assay: Binding Assay for Human 5-HT6 Receptor ([3H]LSD radioligand); conditions: 1000 nM test compound; [3H]LSD 1.5 nM; human recombinant receptor in HEK293 cells
Sequence (P50406 whole entry): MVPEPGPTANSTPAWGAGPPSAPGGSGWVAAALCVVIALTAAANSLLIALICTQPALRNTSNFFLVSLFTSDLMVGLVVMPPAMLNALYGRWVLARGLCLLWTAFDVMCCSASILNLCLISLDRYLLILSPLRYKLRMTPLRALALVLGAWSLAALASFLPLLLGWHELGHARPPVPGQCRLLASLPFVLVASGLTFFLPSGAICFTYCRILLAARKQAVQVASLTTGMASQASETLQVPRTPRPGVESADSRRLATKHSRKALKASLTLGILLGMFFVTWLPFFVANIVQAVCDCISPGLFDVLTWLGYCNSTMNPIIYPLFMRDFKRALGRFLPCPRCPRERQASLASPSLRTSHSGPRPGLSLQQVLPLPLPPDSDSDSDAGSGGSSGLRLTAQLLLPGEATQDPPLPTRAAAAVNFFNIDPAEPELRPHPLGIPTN

{"structure_as_smiles": "CN1CCC(Nc2cc(NS(=O)(=O)c3ccccc3Br)ccc2Cl)CC1", "% Inhibition at 1000 nM (%)": 101.6}
{"structure_as_smiles": "COc1ccc(NS(=O)(=O)c2ccccc2Br)cc1NC1CCN(C)CC1", "% Inhibition at 1000 nM (%)": 100.63}
{"structure_as_smiles": "CN1CCC(Nc2cccc(NS(=O)(=O)c3ccc(F)cc3)c2)CC1", "% Inhibition at 1000 nM (%)": 71.2}
{"structure_as_smiles": "Cc1ccc(S(=O)(=O)Nc2cccc(NC3CCN(C)CC3)c2)cc1", "% Inhibition at 1000 nM (%)": 80.78}
{"structure_as_smiles": "Cc1ccc(S(=O)(=O)Nc2ccc(C)c(NC3CCN(C)CC3)c2)cc1", "% Inhibition at 1000 nM (%)": 92.37}
{"structure_as_smiles": "Cc1ccc(NS(=O)(=O)c2ccc(F)cc2)cc1NC1CCN(C)CC1", "% Inhibition at 1000 nM (%)": 93.00}
{"structure_as_smiles": "Cc1ccc(NS(=O)(=O)c2ccccc2Br)cc1NC1CCN(C)CC1", "% Inhibition at 1000 nM (%)": 104.28}
{"structure_as_smiles": "Cc1ccc(S(=O)(=O)Nc2ccc(Cl)c(NC3CCN(C)CC3)c2)cc1", "% Inhibition at 1000 nM (%)": 98.42}
{"structure_as_smiles": "COc1ccc(NS(=O)(=O)c2ccc(F)cc2)cc1NC1CCN(C)CC1", "% Inhibition at 1000 nM (%)": 99.64}
{"structure_as_smiles": "CN1CCC(Nc2cccc(NS(=O)(=O)c3ccccc3Br)c2)CC1", "% Inhibition at 1000 nM (%)": 94.73}
{"structure_as_smiles": "COc1ccc(NS(=O)(=O)c2ccc(C)cc2)cc1NC1CCN(C)CC1", "% Inhibition at 1000 nM (%)": 99.2}
{"structure_as_smiles": "CN1CCC(Nc2cc(NS(=O)(=O)c3ccc(F)cc3)ccc2Cl)CC1", "% Inhibition at 1000 nM (%)": 96.73}

====

target: UniProt P50406; test: Binding Assay for Human 5-HT6 Receptor ([3H]LSD radioligand); details: 100 nM test compound; [3H]LSD 1.5 nM; human recombinant receptor in HEK293 cells
Recorded measurements of % Inhibition at 100 nM, one per entry

{"structure_as_smiles": "COc1ccc(NS(=O)(=O)c2ccccc2Br)cc1NC1CCN(C)CC1", "measure_unit": "%", "% Inhibition at 100 nM": 99.38}
{"structure_as_smiles": "COc1ccc(NS(=O)(=O)c2ccc(C)cc2)cc1NC1CCN(C)CC1", "measure_unit": "%", "% Inhibition at 100 nM": 88.26}
{"structure_as_smiles": "Cc1ccc(NS(=O)(=O)c2ccc(F)cc2)cc1NC1CCN(C)CC1", "measure_unit": "%", "% Inhibition at 100 nM": 64.27}
{"structure_as_smiles": "CN1CCC(Nc2cccc(NS(=O)(=O)c3ccc(F)cc3)c2)CC1", "measure_unit": "%", "% Inhibition at 100 nM": 34.95}
{"structure_as_smiles": "CN1CCC(Nc2cccc(NS(=O)(=O)c3ccccc3Br)c2)CC1", "measure_unit": "%", "% Inhibition at 100 nM": 64.11}
{"structure_as_smiles": "CN1CCC(Nc2cc(NS(=O)(=O)c3ccc(F)cc3)ccc2Cl)CC1", "measure_unit": "%", "% Inhibition at 100 nM": 69.45}
{"structure_as_smiles": "CN1CCC(Nc2cc(NS(=O)(=O)c3ccccc3Br)ccc2Cl)CC1", "measure_unit": "%", "% Inhibition at 100 nM": 93.8}
{"structure_as_smiles": "Cc1ccc(NS(=O)(=O)c2ccccc2Br)cc1NC1CCN(C)CC1", "measure_unit": "%", "% Inhibition at 100 nM": 99.44}
{"structure_as_smiles": "COc1ccc(NS(=O)(=O)c2ccc(F)cc2)cc1NC1CCN(C)CC1", "measure_unit": "%", "% Inhibition at 100 nM": 90.83}
{"structure_as_smiles": "Cc1ccc(S(=O)(=O)Nc2ccc(C)c(NC3CCN(C)CC3)c2)cc1", "measure_unit": "%", "% Inhibition at 100 nM": 63.42}
{"structure_as_smiles": "Cc1ccc(S(=O)(=O)Nc2ccc(Cl)c(NC3CCN(C)CC3)c2)cc1", "measure_unit": "%", "% Inhibition at 100 nM": 78.66}
{"structure_as_smiles": "Cc1ccc(S(=O)(=O)Nc2cccc(NC3CCN(C)CC3)c2)cc1", "measure_unit": "%", "% Inhibition at 100 nM": 45.25}
